# Target Or System: T1, Extracellular domain (ECD) of the canine IL-4 receptor alpha-V5 epitope-AviTag-His Tag (canine)
# T1 construct: monomeric form isolated by size exclusion; also called canine IL-4RA-V5-Avi-His; canine IL-4RA
# T1 chain: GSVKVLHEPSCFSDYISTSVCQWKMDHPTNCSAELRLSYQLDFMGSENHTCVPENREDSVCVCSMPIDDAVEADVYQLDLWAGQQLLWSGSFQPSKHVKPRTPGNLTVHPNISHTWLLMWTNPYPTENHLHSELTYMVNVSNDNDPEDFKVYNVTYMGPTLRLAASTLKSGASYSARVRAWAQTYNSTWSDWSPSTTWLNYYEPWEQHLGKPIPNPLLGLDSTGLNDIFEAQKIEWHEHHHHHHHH
# Test Summary: SPR, Fab-SASA captured on BSA;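 note: biacore T200 SPR, Fab-SASA variants from E. coli conditioned medium captured on BSA-coated CM5 chip, canine IL-4RA injected 120 s then 420 s dissociation, 1:1 model fit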
Can you tell me Kd for the items I'm about to list?
Express it in nM; write the number only.

Documented Kd of TB640_005 Fab-SASA VL-Q95N (Fab, V domains shown, not shown: SASA tag then His-tag) VH: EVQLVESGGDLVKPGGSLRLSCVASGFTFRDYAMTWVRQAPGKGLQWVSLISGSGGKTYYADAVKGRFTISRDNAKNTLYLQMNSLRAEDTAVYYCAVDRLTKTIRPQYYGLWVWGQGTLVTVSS VL: DIVMTQTPLSLSVSPGETASISCRSSQSLLYSIGYNYLDWYLQKPGQSPQGLIYLGSKRASGVPDRFSGSGSGTDFTLRISRVEANDTGVYYCMNGLQSPLTFGQGTKLEIKR : 4.15

Per the records, this binder ( TB640_005 Fab-SASA VH-V114Q (Fab, V domains shown, not shown: SASA tag then His-tag) VH: EVQLVESGGDLVKPGGSLRLSCVASGFTFRDYAMTWVRQAPGKGLQWVSLISGSGGKTYYADAVKGRFTISRDNAKNTLYLQMNSLRAEDTAVYYCAVDRLTKTIRPQYYGLWQWGQGTLVTVSS VL: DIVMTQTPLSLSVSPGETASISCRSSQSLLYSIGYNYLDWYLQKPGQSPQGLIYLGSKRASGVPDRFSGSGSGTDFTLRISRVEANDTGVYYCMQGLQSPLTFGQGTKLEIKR ) has Kd equal to 7.16
